Each entry below carries its recorded Activity.
Tested on: Acinetobacter
Assay: Antimicrobial activity against imipenem susceptible Acinetobacter assessed as intermediate isolate by broth microdilution method
Type: functional
Unit % implied. Number only.

Check out these entries, answers already filled in.
• CC(C)(O/N=C(\C(=O)N[C@@H]1C(=O)N2C(C(=O)[O-])=C(C[n+]3ccccc3)CS[C@H]12)c1csc(N)n1)C(=O)O [CEFTAZIDIME] = 5.5
• CO/N=C(\C(=O)N[C@@H]1C(=O)N2C(C(=O)[O-])=C(C[N+]3(C)CCCC3)CS[C@H]12)c1csc(N)n1 = 11.8

Give Acinetobacter Activity for C[C@@H](O)[C@H]1C(=O)N2C(C(=O)O)=C(SCCNC=N)C[C@H]12 [IMIPENEM ANHYDROUS]
0

Hi! What's the reported Activity for C[C@@H](O)[C@H]1C(=O)N2C(C(=O)O)=C(S[C@@H]3CN[C@H](C(=O)N(C)C)C3)[C@H](C)[C@H]12 [MEROPENEM] on Acinetobacter?
1.7

---

Test system: Serratia marcescens
Assay: Antimicrobial activity against Ceftazidime non-susceptible Serratia marcescens assessed as intermediate isolate by broth microdilution method
Assay type: functional
assay.readout: Activity (%)
Kindly provide the numeric value in % only, without the unit symbol.

Example compounds with recorded Activity:
- CO/N=C(\C(=O)N[C@@H]1C(=O)N2C(C(=O)[O-])=C(C[N+]3(C)CCCC3)CS[C@H]12)c1csc(N)n1: 10
- C[C@@H](O)[C@H]1C(=O)N2C(C(=O)O)=C(S[C@@H]3CN[C@H](C(=O)N(C)C)C3)[C@H](C)[C@H]12 [MEROPENEM]: 0
- CO/N=C(\C(=O)N[C@@H]1C(=O)N2C(C(=O)O)=C(CSc3nc(=O)c(O)nn3C)CS[C@H]12)c1csc(N)n1 [CEFTRIAXONE]: 30
- CC(C)(O/N=C(\C(=O)N[C@@H]1C(=O)N2C(C(=O)[O-])=C(C[n+]3ccccc3)CS[C@H]12)c1csc(N)n1)C(=O)O [CEFTAZIDIME]: 0

Let us examine a further case.
Consider the compound C[C@@H](O)[C@H]1C(=O)N2C(C(=O)O)=C(SCCNC=N)C[C@H]12 [IMIPENEM ANHYDROUS] and give its measured Activity.
0

---

Consider the following molecules and their measured Activity readings.
System: Serratia marcescens
Experiment: Antimicrobial activity against Ceftazidime susceptible Serratia marcescens assessed as intermediate isolate by broth microdilution method
Format: functional
Write it as a number; the unit % goes unstated.

• CO/N=C(\C(=O)N[C@@H]1C(=O)N2C(C(=O)[O-])=C(C[N+]3(C)CCCC3)CS[C@H]12)c1csc(N)n1 = 0
• CO/N=C(\C(=O)N[C@@H]1C(=O)N2C(C(=O)O)=C(CSc3nc(=O)c(O)nn3C)CS[C@H]12)c1csc(N)n1 = 1.4

Which Activity is reported for this molecule? C[C@@H](O)[C@H]1C(=O)N2C(C(=O)O)=C(SCCNC=N)C[C@H]12 [IMIPENEM ANHYDROUS]
0.3

Bench note: what Activity did `CC(C)(O/N=C(\C(=O)N[C@@H]1C(=O)N2C(C(=O)[O-])=C(C[n+]3ccccc3)CS[C@H]12)c1csc(N)n1)C(=O)O` show?
0

Look up Activity: `C[C@@H](O)[C@H]1C(=O)N2C(C(=O)O)=C(S[C@@H]3CN[C@H](C(=O)N(C)C)C3)[C@H](C)[C@H]12`
0
